Test system: TK-10 renal
Assay: NCI tumour cell line growth inhibition, 48 h
reported-property: log10(TGI) (log10 of the value in µM)

[[record]]
molecule = "Cc1cccc2c(NCCCN(C)C)c3c([N+](=O)[O-])ccc(C)c3nc12"
recorded_measurement = -0.15

[[record]]
molecule = "Nc1nc(Cl)c(N=Nc2ccc(Cl)cc2)c(NCC2(CO)CCC(CCc3ccccc3)C2)n1 (configuration not stated)"
recorded_measurement = 1.44

[[record]]
molecule = "COC1=CC(=O)c2c(cc(COP(N)(=O)N(CCBr)CCBr)n2C)C1=O (configuration not stated)"
recorded_measurement = 0.54

[[record]]
molecule = "O=C(NC(=S)Nc1ccc2c(c1)Sc1ccccc1O2)c1ccccc1"
recorded_measurement = 1.73

[[record]]
molecule = "COc1ccc(C2C=C(c3ccc(OC)c(OC)c3)N=C3SC=CN32)c(Br)c1 (configuration not stated)"
recorded_measurement = 1.18

[[record]]
molecule = "COc1cc(/C=C/C(=O)c2ccccc2)cc(OC)c1OC"
recorded_measurement = 1.35

[[record]]
molecule = "N#CC(C/C=C/c1ccccc1)NNC(=O)c1c(Cl)c(Cl)c(Cl)c(Cl)c1-c1nc2ccc(C(=O)c3ccccc3)cc2[nH]1 (configuration not stated)"
recorded_measurement = 1.82

[[record]]
molecule = "Cc1nc2cc(-c3nn(C(C)C)c4ncnc(N)c34)ccc2o1"
recorded_measurement = -0.78

[[record]]
molecule = "Cc1ccc(O)c(C2=CC3=NNC(=O)C3C(c3cccc(Br)c3)C2)c1 (configuration not stated)"
recorded_measurement = 1.62

